Molecular target: T1, human TMEM106B (human, UniProt Q9NUM4 2-274)
T1 construct: Full-length, on transiently transfected HEK293 cells, or natively expressed on HeLa, U251 and A549 cells; also called huTMEM106B; huTMEM
Test: FACS A549, 10 ug/ml
Measured MFI values are reported for all entries that follow.
Please reply with the value in numeric form only.

Use these answered entries as a reference point.
1) anti-TMEM106B antibody TM-1 (antibody, V domains shown) VH: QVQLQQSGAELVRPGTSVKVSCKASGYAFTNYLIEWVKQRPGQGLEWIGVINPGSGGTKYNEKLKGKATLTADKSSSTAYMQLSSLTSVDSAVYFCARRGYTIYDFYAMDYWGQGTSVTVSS VL: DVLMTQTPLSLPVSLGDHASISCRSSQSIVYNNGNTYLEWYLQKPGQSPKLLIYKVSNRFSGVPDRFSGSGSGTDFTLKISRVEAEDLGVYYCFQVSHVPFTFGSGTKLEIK	409
2) anti-TMEM106B antibody TM-16 (antibody, V domains shown) VH: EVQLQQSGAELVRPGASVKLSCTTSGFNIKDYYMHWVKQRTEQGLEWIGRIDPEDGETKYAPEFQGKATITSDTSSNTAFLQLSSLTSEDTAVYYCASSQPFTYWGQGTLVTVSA VL: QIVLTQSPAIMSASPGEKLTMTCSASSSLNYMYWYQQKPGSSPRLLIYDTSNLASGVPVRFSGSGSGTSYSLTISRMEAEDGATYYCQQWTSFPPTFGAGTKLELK	557

Next binder, please.
[ask] Could you share which MFI value was measured for anti-TMEM106B antibody TM-35 (antibody, V domains shown) VH: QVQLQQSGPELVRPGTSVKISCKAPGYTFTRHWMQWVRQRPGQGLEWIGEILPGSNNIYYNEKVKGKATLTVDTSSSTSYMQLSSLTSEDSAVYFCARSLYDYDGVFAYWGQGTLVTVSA VL: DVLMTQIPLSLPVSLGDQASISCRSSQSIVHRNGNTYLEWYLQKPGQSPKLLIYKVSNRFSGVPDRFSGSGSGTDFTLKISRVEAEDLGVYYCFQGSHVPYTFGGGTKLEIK ?
[reply] 4200
